# assay_system: UniProtKB O15244
# Sequence (O15244 whole entry): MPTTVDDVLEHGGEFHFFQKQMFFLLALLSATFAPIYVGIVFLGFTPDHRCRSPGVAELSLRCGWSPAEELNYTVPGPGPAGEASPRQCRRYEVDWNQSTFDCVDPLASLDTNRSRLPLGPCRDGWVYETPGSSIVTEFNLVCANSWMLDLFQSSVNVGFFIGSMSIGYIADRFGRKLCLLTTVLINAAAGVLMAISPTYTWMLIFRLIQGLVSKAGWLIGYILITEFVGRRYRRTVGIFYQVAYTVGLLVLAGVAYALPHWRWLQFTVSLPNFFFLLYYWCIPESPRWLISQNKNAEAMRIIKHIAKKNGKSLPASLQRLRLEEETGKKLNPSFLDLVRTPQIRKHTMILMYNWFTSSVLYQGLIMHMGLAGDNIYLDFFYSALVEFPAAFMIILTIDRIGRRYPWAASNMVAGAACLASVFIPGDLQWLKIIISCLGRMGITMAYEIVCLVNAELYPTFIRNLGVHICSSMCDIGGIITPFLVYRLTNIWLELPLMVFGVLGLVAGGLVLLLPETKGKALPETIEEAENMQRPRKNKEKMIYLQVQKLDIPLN
# assay_remarks: in vitro
# condition_details: human, pH 7.3
Item-by-item account of % Inhibition of OCT2-dependent MF uptake at 20 µM (mean ± SEM)

> print(dat)
                                   compound  observed.result
1  COc1ccc(C(CN(C)C)C2(O)CCCCC2)cc1 (stereo not shown)       17.6 ± 3.2

Query string: Recall the recorded % Inhibition of OCT2-dependent MF uptake at 20 µM (mean ± SEM) for `O=C(CCCN1CCC(n2c(O)nc3ccccc32)CC1)c1ccc(F)cc1` with UniProtKB O15244 and state it.
Result string: 58.7 ± 3.3%

Query string: Return % Inhibition of OCT2-dependent MF uptake at 20 µM (mean ± SEM) measured with UniProtKB O15244 given this compound: CC(=O)NCCCS(=O)(=O)O [Acamprosate]
Result string: 2.7 ± 4.8%

Query string: Entry `C[C@]12CC[C@@H]3c4ccc(O)cc4CC[C@H]3[C@@H]1CC[C@@H]2O` , system UniProtKB O15244: what % Inhibition of OCT2-dependent MF uptake at 20 µM (mean ± SEM) was measured?
Result string: 57.9 ± 5.4

Query string: Field: % Inhibition of OCT2-dependent MF uptake at 20 µM (mean ± SEM) (UniProtKB O15244). Entry: `CCOC(=O)[N-]c1cn(N2CCOCC2)n[o+]1`
Result string: 41.4 ± 3.6

Query string: So what % Inhibition of OCT2-dependent MF uptake at 20 µM (mean ± SEM) did `N[C@@H](Cc1ccc(O)c(O)c1)C(=O)O` get with UniProtKB O15244?
Result string: -9.3 ± 6.8

Query string: Write down the reported % Inhibition of OCT2-dependent MF uptake at 20 µM (mean ± SEM) of COc1ccc(Cl)cc1C(=O)NCCc1ccc(S(=O)(=O)NC(=O)NC2CCCCC2)cc1 [Glibenclamide] , test system: UniProtKB O15244.
Result string: 38.7 ± 11.9

Query string: # value lookup — system UniProtKB O15244, readout % Inhibition of OCT2-dependent MF uptake at 20 µM (mean ± SEM), item `CN(C)CCC[C@@]1(c2ccc(F)cc2)OCc2cc(C#N)ccc21`
Result string: 62.6 ± 9.2

Query string: Form: Entry = `CC1(C)S[C@@H]2[C@H](NC(=O)[C@H](N)c3ccc(O)cc3)C(=O)N2[C@H]1C(=O)O` | System = UniProtKB O15244 | % Inhibition of OCT2-dependent MF uptake at 20 µM (mean ± SEM) = ____
Result string: 3.2 ± 6.6%

Query string: # value lookup — system UniProtKB O15244, readout % Inhibition of OCT2-dependent MF uptake at 20 µM (mean ± SEM), item `C[C@H](CS)C(=O)N1CCC[C@H]1C(=O)O`
Result string: -21.6 ± 19.5%

Query string: Give the reported % Inhibition of OCT2-dependent MF uptake at 20 µM (mean ± SEM) for CC(C)OC(=O)C(C)(C)Oc1ccc(C(=O)c2ccc(Cl)cc2)cc1 [Fenofibrate] (system: UniProtKB O15244).
Result string: 43.0 ± 9.9

Query string: State its % Inhibition of OCT2-dependent MF uptake at 20 µM (mean ± SEM) on UniProtKB O15244: `CC(=O)N[C@@H](CS)C(=O)O`
Result string: 13.2 ± 6.3%

Query string: Please tell me: % Inhibition of OCT2-dependent MF uptake at 20 µM (mean ± SEM) of CN(C)CCCC1(c2ccc(F)cc2)OCc2cc(C#N)ccc21 (stereo not shown) , system UniProtKB O15244?
Result string: 66.6 ± 7.9

Query string: Return % Inhibition of OCT2-dependent MF uptake at 20 µM (mean ± SEM) measured with UniProtKB O15244 given this compound: CCOC(=O)C1=C(COCCN)NC(C)=C(C(=O)OC)C1c1ccccc1Cl (stereo not shown)
Result string: 21.9 ± 9.0%
